Target chain: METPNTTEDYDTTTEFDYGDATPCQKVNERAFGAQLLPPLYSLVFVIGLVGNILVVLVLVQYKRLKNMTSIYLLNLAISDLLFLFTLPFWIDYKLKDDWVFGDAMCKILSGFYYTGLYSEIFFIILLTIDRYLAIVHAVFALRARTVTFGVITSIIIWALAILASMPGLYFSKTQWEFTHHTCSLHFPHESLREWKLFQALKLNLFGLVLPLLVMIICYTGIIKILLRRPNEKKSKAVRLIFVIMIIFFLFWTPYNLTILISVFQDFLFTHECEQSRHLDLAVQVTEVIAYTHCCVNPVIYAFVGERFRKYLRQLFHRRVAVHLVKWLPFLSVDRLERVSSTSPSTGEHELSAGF
parameter: IC50

# compound, IC50
measured = [
    ("Cc1nnc([C@H]2CCCN2C(=O)NC2(c3ccccc3)CC2)n1[C@@H](C)c1ccc(Cl)cc1", "0.05 to 0.5 µM"),
]

Below is a list of compounds. For each, state its recorded IC50.
1. Cc1nnc([C@H]2C[C@H](O)CN2C(=O)Nc2ccc(Cl)nc2Cl)n1Cc1ccc(Cl)cc1
2. CC(C)Cc1ccc([C@H](C)NC(=O)N2CCC[C@@H]2c2ncnn2Cc2ccc(Cl)cc2)cc1
3. CCc1cc(Cn2c(C)nnc2[C@H]2CCCN2C(=O)Nc2ccc(Cl)cc2F)ccc1Cl

Outgoing:
1: 0.05 to 0.5 µM; 2: 0.05 to 0.5 µM; 3: 0.05 to 0.5 µM

Batch lookup, IC50 per entry.
1. Cc1nnc([C@H]2CCCN2C(=S)Nc2ccc(C(F)(F)F)cc2)n1Cc1ccc(Cl)cc1
2. Cc1nc(NC(=O)N2CCC[C@@H]2c2nnc(C)n2Cc2ccc(Cl)cc2)sc1C
3. Cc1nnc([C@H]2CCCN2C(=O)N[C@@H](C)c2ccc(F)cc2)n1Cc1ccc(Cl)cc1
4. Cc1nnc([C@H]2CCCN2C(=O)N[C@H]2CCOc3cc(C#N)ccc32)n1Cc1ccc(Cl)cc1

Outgoing:
["< 0.05 µM", "0.5 to 5 µM", "< 0.05 µM", "< 0.05 µM"]
